Entry source: ChEMBL document CHEMBL4184220

# Lookup of reported half-life keyed by entry
# protocolDetails: Half life in Wistar rat at 50 mg/kg, po administered as single dose measured after 1 to 24 hrs by reverse-phase HPLC method
# conditionsUsed: in vivo
Your answer is read as h, so omit the unit and give the number.

O=C(COCC(=O)Nc1ccc(Cl)cc1C(=O)O)Nc1cccc(C(F)(F)F)c1: 0.8
Cn1cc(-c2cccc(NC(=O)COCC(=O)Nc3ccc(Cl)cc3C(=O)O)c2)cn1: 9.9
CC(=O)Nc1ccc(-c2ccc(C)c(NC(=O)COCC(=O)Nc3ccc(Cl)cc3C(=O)O)c2)cc1: 1.4
O=C(COCC(=O)N1CCN(C(c2ccccc2)c2ccccc2)CC1)Nc1ccc(Cl)cc1C(=O)O: 2.5
Cc1ccc(-c2ccc(F)cc2)cc1NC(=O)COCC(=O)Nc1ccc(Cl)cc1C(=O)O: 1.8

Here is another compound to look at.
Please give the documented half-life of O=C(COCC(=O)Nc1ccc(Cl)cc1C(=O)[O-])Nc1cccc(-c2ccccn2)c1.[Na+]
2.4
